# System: Wolbachia pipientis
# protocol text: Anti-Wolbachia Cell-Based Screen
# Format: functional
# Set-up: scale not given: in the data most compounds retested in dose-response had high values
# measurement parameters: 5 µM
The whole screen tested about 48,000 compounds, of which about 13,000 (27%) showed an effect of 50% or more. The list shows a part of the results.
Parameter: Percent Effect. Scope: all listed entries.
Numbers only here, please. The scale is %.

Below, 8 compounds whose answers are already recorded.
CC(=O)Nn1c(C)cc(CN2CCC(C(=O)N3CCCC3)CC2)c1C = 13.77
Cn1cc(CN2CCC3(CCC(C(=O)NCC4CC4)C3)CC2)cn1.O=C(O)C(F)(F)F (configuration not stated) = 38.61
CN(C)c1cc(CNC(=O)c2cnccn2)ccn1 = 139.9
Cc1cc(CN(C)C(=O)NCc2ccnc(N(C)C)c2)no1 = -11.21
Cc1cc(NC(=O)N2CCOCC2)nn1-c1cccc(Cl)c1 = 1.002
c1cnnc(N2CCCC(NCc3nc(-c4ccsc4)no3)C2)c1 (configuration not stated) = -5.717
Cn1cccc1C(=O)N1CCN(Cc2ccncc2)c2ncccc2C1.O=C(O)C(F)(F)F.O=C(O)C(F)(F)F = -28.33
COCCN1CCN(C(=O)c2ccncc2F)Cc2cccnc21 = 4.379

So what does the record say about Percent Effect for CCn1cc(S(=O)(=O)N2CCCC3(CC=CNC3=O)C2)c(C)n1 (configuration not stated) ?
118.1

So what does the record say about Percent Effect for `Cc1cnc(C(=O)NCc2ccnc(N(C)C)c2)cn1` ?
122.7

So what does the record say about Percent Effect for `Cn1cc(CNC2CCOCC2)c(-c2cc3ccccc3o2)n1` ?
2.257

So what does the record say about Percent Effect for `CN1CCN(C(=O)c2cccn2C)Cc2cccnc21` ?
105.6

---

Parameter: Percent Effect. Scope: all listed entries.
# Tested on: Wolbachia pipientis
# protocol text: Anti-Wolbachia Cell-Based Screen
# Assay type: functional
# Parameters: scale not given: in the data most compounds retested in dose-response had high values
# measurement parameters: 5 µM
About 13,000 (27%) of roughly 48,000 compounds showed an effect of 50% or more. The list shows a part of the results.
Numbers only here, please. The scale is %.

Cc1nnc(CN2CCN(Cc3nccn3C)CC2)n1C = -10.76
CC(C)Cc1noc(CN(C)C2CCS(=O)(=O)C2)n1 (configuration not stated) = -20.93
Cc1cnc(N2CCC3(C2)C(=O)N(C)CCN3Cc2cccnc2)nc1.O=C(O)C(F)(F)F.O=C(O)C(F)(F)F (configuration not stated) = 1.691
O=C1N(Cc2ccc(F)c(F)c2)CCCC12CCN(C1CCCC1)C2 (configuration not stated) = 7.69
O=C(c1ccccn1)N1C[C@@H]2CC[C@H](C1)N(C(=O)CCc1cccs1)C2 = -9.254

So what does the record say about Percent Effect for COc1cc(N2CCCC3(CCN(c4cncnc4)C3=O)C2)ncn1 (configuration not stated) ?
-10.96

So what does the record say about Percent Effect for Cn1ccnc1CN1CCN(CC(O)c2ccco2)CC1 (configuration not stated) ?
3.847

So what does the record say about Percent Effect for `O=C(c1cccnc1-n1cncn1)N1CCN(C2CCCC2)CC1` ?
9.271

So what does the record say about Percent Effect for COc1cc(N2CCC3(CCN(Cc4cccnc4)C3=O)C2)ncn1 (configuration not stated) ?
116

So what does the record say about Percent Effect for Cc1nnc(CN2CCN(CC(O)c3cccc(F)c3)CC2)n1C (configuration not stated) ?
8.346

So what does the record say about Percent Effect for O=C(O)C(F)(F)F.O=C(O)C(F)(F)F.O=C1N(Cc2cccnc2)CCC12CCCN(c1ncccn1)C2 (configuration not stated) ?
94.5

So what does the record say about Percent Effect for COc1cccc(N2CC3(CCN(c4ccc(C)nn4)C3)CC2=O)c1 (configuration not stated) ?
3.863

So what does the record say about Percent Effect for `CC1(C)COCCN1C(=O)CCc1nc(-c2ccccn2)no1` ?
-0.8567

So what does the record say about Percent Effect for `CCC(C)(C)NCc1nc(C(C)(C)NC(=O)OC(C)(C)C)no1` ?
2.253

So what does the record say about Percent Effect for Cc1ccc(C(O)CN2CCN(Cc3nccn3C)CC2)cc1C (configuration not stated) ?
121.6

So what does the record say about Percent Effect for O=C(O)C(F)(F)F.O=C([C@H]1CCCO1)N1CCCC2(CCN(Cc3ccncc3)C2=O)C1 (some centres not stated) ?
14.29
